target: M1 muscarinic receptor (Homo sapiens, UniProt P11229); construct: expressed in transfected cells; host or cells: CHO (M1-CHO); assay: Functional mobilization of intracellular calcium (FLIPR) in M1-CHO cells; type: cell-based; settings: M1 receptor, calcium mobilization; read-out: M1 Efficacy
Provide the recorded Emax for the entries that follow.

INPUT: If you can, please state the reported Emax value of CCOC(=O)N1CCC(N2CCC3(CC2)CN(C(C)=O)c2ccc(-c4ccccc4C)cc23)CC1 .
OUTPUT: 65 to 85%

INPUT: If you can, please state the reported Emax value of Clc1ccc2c(c1)C1(CCO2)CCN(C2CCOCC2)CC1 .
OUTPUT: > 85%

INPUT: If you can, please state the reported Emax value of O=C(OC1CCCC1)N1C2CCC1CC(N1CCC3(CCc4ccccc43)CC1)C2 (stereo not shown) .
OUTPUT: 65 to 85%

INPUT: If you can, please state the reported Emax value of CCOC(=O)N1C2CCC1CC(N1CCC3(CC1)C(=O)N(C)c1ccccc13)C2 (stereo not shown) .
OUTPUT: > 85%

###

Molecular target: M1 muscarinic receptor (Homo sapiens)
Construct: expressed in transfected cells; host or cells: CHO (M1-CHO)
Sequence (P11229 1-460): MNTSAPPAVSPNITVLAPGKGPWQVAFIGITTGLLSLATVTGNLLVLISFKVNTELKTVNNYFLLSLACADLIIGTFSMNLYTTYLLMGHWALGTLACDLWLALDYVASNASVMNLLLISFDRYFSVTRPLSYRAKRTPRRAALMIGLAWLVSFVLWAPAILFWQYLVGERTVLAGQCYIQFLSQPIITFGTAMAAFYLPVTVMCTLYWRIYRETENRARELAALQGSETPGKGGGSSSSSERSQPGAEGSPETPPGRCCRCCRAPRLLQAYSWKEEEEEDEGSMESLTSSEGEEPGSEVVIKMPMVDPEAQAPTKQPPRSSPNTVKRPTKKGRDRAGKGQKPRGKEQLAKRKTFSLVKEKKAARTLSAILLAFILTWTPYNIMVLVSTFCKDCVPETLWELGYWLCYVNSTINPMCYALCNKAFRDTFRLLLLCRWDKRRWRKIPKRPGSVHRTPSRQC
Experiment: Functional mobilization of intracellular calcium (FLIPR) in M1-CHO cells
Format: cell-based
Conditions: Table 4; 100% efficacy is the maximum response obtained with the Carbachol control
Provide the recorded Emax for the entries that follow.

INPUT: If you can, please state the reported Emax value of CC(=O)N1CC2(CCN(C3CCN(c4nccs4)CC3)CC2)c2cc(F)ccc21 [compound 976] .
OUTPUT: 25 to 100%

INPUT: If you can, please state the reported Emax value of CCOC(=O)N1CCC(N2CCC3(CC[C@H](NC(C)=O)c4ccccc43)CC2)CC1 [compound 537] .
OUTPUT: 25 to 100%

INPUT: If you can, please state the reported Emax value of CCOC(=O)N1CCC(N2CCC3(CC2)CN(C(=O)N2CCOCC2)c2ccccc23)CC1 [compound 903] .
OUTPUT: 25 to 100%

INPUT: If you can, please state the reported Emax value of CC#CCOC(=O)N1CCC(N2CCC3(CC2)CN(C(C)=O)c2cccc(C)c23)CC1 [compound 526] .
OUTPUT: 25 to 100%

INPUT: If you can, please state the reported Emax value of CCOC(=O)N1C2CCC1CC(N1CCC3(CC1)CC(=O)c1cc(C)ccc13)C2 (stereo not shown) [compound 949] .
OUTPUT: 25 to 100%

INPUT: If you can, please state the reported Emax value of CCCC#CCOC(=O)N1CC[C@H](CN2CCC3(CC2)CN(C(=O)N(C)C)c2ccc(F)cc23)C1 [compound 981] .
OUTPUT: 25 to 100%

INPUT: If you can, please state the reported Emax value of CC(=O)N1CC2(CCN(C3CCN(c4nc(C)cs4)CC3)CC2)c2ccccc21 [compound 471] .
OUTPUT: 25 to 100%

INPUT: If you can, please state the reported Emax value of CC(=O)N1CC2(CCN(C3CCN(c4nccs4)CC3)CC2)c2ccccc21 [compound 894] .
OUTPUT: 25 to 100%

INPUT: If you can, please state the reported Emax value of COC(=O)N1CCC(N2CCC3(CC2)CN(C(C)=O)c2ccc(F)cc23)C1 (stereo not shown) [compound 771] .
OUTPUT: < 25%

INPUT: If you can, please state the reported Emax value of CC1(C)C(=O)c2ccccc2C12CCN([C@@H]1C[C@@H]3CC[C@H]1C3)CC2 [compound 758] .
OUTPUT: < 25%

INPUT: If you can, please state the reported Emax value of COc1ccc(C(=O)N2CCC(N3CCC4(CC3)CN(C(=O)N(C)C)c3ccc(F)cc34)CC2)cc1 [compound 917] .
OUTPUT: < 25%

INPUT: If you can, please state the reported Emax value of CCCCNC(=O)N1CC2(CCN(C3CCN(C(=O)OCC)CC3)CC2)c2ccccc21 [compound 721] .
OUTPUT: 25 to 100%

INPUT: If you can, please state the reported Emax value of COC(=O)N1CC[C@H](CN2CCC3(CC2)CN(C(=O)N(C)C)c2ccc(F)cc23)C1 [compound 807] .
OUTPUT: 25 to 100%

INPUT: If you can, please state the reported Emax value of CCOC(=O)N1C2CCC1CC(N1CCC3(CC[C@H](N4CCCC4=O)c4ccccc43)CC1)C2 (stereo partly shown) [compound 1014] .
OUTPUT: 25 to 100%

INPUT: If you can, please state the reported Emax value of CCOC(=O)N1CCC(N2CCC3(CC2)CN(C(C)=O)c2cccc(OC)c23)CC1 [compound 560] .
OUTPUT: 25 to 100%

INPUT: If you can, please state the reported Emax value of COc1cc2c(cc1OC)C1(CCN([C@H]3CC4CC[C@@H]3C4)CC1)C[C@@H]2NC(C)=O [compound 1002] .
OUTPUT: < 25%

###

Provide the recorded Emax for the entries that follow.
Biological target: M1 muscarinic receptor (Homo sapiens, UniProt P11229)
Construct: expressed in transfected cells; host or cells: CHO (M1-CHO)
Sequence (P11229 1-460): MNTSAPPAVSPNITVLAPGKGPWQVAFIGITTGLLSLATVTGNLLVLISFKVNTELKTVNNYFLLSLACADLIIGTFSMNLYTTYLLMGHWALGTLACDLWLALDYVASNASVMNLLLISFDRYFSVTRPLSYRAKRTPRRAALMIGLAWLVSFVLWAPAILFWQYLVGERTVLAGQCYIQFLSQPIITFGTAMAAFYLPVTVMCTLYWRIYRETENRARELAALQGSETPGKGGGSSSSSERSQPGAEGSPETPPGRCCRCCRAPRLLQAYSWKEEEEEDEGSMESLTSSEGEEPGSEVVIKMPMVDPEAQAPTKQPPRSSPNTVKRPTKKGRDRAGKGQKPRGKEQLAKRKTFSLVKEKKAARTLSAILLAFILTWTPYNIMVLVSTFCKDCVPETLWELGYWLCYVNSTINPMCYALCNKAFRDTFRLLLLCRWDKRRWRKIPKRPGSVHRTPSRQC
Assay: Functional mobilization of intracellular calcium (FLIPR) in M1-CHO cells
Assay type: cell-based
Conditions: M1 receptor, calcium mobilization; read-out: M1 Efficacy

INPUT: If you can, please state the reported Emax value of CC(=O)N1CC2(CCN(CC3CCOC3)CC2)c2cc(F)ccc21 (centres unmarked) [compound 135] .
OUTPUT: > 85%

INPUT: If you can, please state the reported Emax value of CCOC(=O)N1C2CCC1CC(N1CCC3(CC1)CNc1ccc(Cl)cc13)C2 (centres unmarked) [compound 351] .
OUTPUT: 65 to 85%

INPUT: If you can, please state the reported Emax value of CCOC(=O)N1CCC(CN2CCC3(CC2)CN(C(C)=O)c2c(F)cccc23)CC1 [compound 307] .
OUTPUT: 65 to 85%

INPUT: If you can, please state the reported Emax value of O=C(OC1CCCC1)N1C2CCC1CC(N1CCC3(CC1)COc1ccc(F)cc13)C2 (centres unmarked) [compound 133] .
OUTPUT: > 85%

INPUT: If you can, please state the reported Emax value of CC(=O)N1CC2(CCN(C3CCC(C(C)C)CC3)CC2)c2cc(F)ccc21 (centres unmarked) [compound 226] .
OUTPUT: < 65%

INPUT: If you can, please state the reported Emax value of CCC1CCC(N2CCC3(CC2)CN(C(C)=O)c2ccc(F)cc23)CC1 (centres unmarked) [compound 27] .
OUTPUT: 65 to 85%

INPUT: If you can, please state the reported Emax value of CC(=O)N1CC2(CCN(C3CC[C@@H]4CC[C@@H]3C4)CC2)c2cc(F)ccc21 (some centres unmarked) [compound 251] .
OUTPUT: 65 to 85%

INPUT: If you can, please state the reported Emax value of CC(=O)N1CC2(CCN(C3CC4CCC(C3)N4C(=O)O[C@@H]3CCOC3)CC2)c2cc(F)ccc21 (some centres unmarked) [compound 67] .
OUTPUT: < 65%

INPUT: If you can, please state the reported Emax value of O=C(OC1CCCC1)N1C2CCC1CC(N1CCC3(CC1)C(=O)Nc1ccccc13)C2 (centres unmarked) [compound 271] .
OUTPUT: 65 to 85%

INPUT: If you can, please state the reported Emax value of CS(=O)(=O)N[C@H]1CC2(CCN(C[C@H]3C[C@H]4C=C[C@H]3C4)CC2)c2ccccc21 [compound 70] .
OUTPUT: 65 to 85%

INPUT: If you can, please state the reported Emax value of COC(=O)N1C2CCC1CC(N1CCC3(CC1)CN(C(=O)N(C)C)c1ccc(F)cc13)C2 (centres unmarked) [compound 314] .
OUTPUT: < 65%

INPUT: If you can, please state the reported Emax value of CCOC(=O)N1C2CCC1CC(N1CCC3(CC1)CN(C(=O)c1cc(C)n(C)n1)c1ccc(F)cc13)C2 (centres unmarked) [compound 50] .
OUTPUT: > 85%

INPUT: If you can, please state the reported Emax value of Cc1cc(C(=O)N2CC3(CCN(C4CC5CCC(C4)N5C(=O)OC(C)C)CC3)c3cc(F)ccc32)nn1C (centres unmarked) [compound 24] .
OUTPUT: < 65%

INPUT: If you can, please state the reported Emax value of CCOC(=O)N1CCC(N2CCC3(CC2)CN(CCC(=O)CC)c2ccc(F)cc23)CC1 [compound 229] .
OUTPUT: < 65%
